Each entry below lists one item and its recorded PBM E-score value.
- MEASURED ON: Ecm22 (UniProt Q05958)
- Sequence: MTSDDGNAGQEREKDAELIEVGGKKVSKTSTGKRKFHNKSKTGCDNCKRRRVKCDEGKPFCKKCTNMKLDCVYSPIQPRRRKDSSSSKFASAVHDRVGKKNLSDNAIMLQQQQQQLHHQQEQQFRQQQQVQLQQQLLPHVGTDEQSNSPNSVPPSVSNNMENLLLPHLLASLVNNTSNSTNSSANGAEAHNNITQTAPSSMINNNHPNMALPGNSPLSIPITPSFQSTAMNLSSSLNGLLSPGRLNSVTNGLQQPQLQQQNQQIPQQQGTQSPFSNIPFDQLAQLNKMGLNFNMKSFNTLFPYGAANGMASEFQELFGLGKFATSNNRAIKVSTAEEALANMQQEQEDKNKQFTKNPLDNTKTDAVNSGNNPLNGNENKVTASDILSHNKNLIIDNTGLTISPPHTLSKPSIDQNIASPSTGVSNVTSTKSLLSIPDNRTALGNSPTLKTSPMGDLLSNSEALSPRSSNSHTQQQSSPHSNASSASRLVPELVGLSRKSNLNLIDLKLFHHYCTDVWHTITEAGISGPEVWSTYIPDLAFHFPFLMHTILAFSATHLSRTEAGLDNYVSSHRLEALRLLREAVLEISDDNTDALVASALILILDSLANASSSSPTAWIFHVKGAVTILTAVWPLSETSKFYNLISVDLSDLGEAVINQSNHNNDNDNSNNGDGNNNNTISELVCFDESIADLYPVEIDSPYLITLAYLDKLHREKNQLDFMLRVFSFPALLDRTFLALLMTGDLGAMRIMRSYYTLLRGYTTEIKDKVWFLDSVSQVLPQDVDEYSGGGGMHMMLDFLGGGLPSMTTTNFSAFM
- TEST PROTOCOL: PBM E-score (8-mer binding enrichment) (E-score (-0.5 to 0.5)); higher = stronger / more preferred TF binding
- CONDITION CONTEXT: protein concentration: 200 nM; construct: GST-full length
The full ranking holds about 33,000 sequences; the median of “E-score (-0.5 to 0.5)” is about -0.041, and the highest 2% start at about 0.37. This is one part of a sample in which the highest values are shown more often than they occur.
Number only, please.

Task item: Fill in reported PBM E-score for this entry: "ACGTTTCA"
Reply: 0.107

Task item: Fill in reported PBM E-score for this entry: "TAATCGCA"
Reply: 0.215

Task item: Fill in reported PBM E-score for this entry: "ACAGACCA"
Reply: -0.0504

Task item: Fill in reported PBM E-score for this entry: "CCGTTCCC"
Reply: 0.464

Task item: Fill in reported PBM E-score for this entry: "TCGTTTCA"
Reply: 0.396

Task item: Fill in reported PBM E-score for this entry: "CTGTTCCA"
Reply: -0.186

Task item: Fill in reported PBM E-score for this entry: "GGGGTTAC"
Reply: 0.0772

Task item: Fill in reported PBM E-score for this entry: "CCGTTCGA"
Reply: 0.152

Task item: Fill in reported PBM E-score for this entry: "TCGTTCCA"
Reply: 0.475

Task item: Fill in reported PBM E-score for this entry: "CCGTTCCA"
Reply: 0.373

====

- MEASURED ON: Ecm22 (UniProt Q05958)
- Sequence: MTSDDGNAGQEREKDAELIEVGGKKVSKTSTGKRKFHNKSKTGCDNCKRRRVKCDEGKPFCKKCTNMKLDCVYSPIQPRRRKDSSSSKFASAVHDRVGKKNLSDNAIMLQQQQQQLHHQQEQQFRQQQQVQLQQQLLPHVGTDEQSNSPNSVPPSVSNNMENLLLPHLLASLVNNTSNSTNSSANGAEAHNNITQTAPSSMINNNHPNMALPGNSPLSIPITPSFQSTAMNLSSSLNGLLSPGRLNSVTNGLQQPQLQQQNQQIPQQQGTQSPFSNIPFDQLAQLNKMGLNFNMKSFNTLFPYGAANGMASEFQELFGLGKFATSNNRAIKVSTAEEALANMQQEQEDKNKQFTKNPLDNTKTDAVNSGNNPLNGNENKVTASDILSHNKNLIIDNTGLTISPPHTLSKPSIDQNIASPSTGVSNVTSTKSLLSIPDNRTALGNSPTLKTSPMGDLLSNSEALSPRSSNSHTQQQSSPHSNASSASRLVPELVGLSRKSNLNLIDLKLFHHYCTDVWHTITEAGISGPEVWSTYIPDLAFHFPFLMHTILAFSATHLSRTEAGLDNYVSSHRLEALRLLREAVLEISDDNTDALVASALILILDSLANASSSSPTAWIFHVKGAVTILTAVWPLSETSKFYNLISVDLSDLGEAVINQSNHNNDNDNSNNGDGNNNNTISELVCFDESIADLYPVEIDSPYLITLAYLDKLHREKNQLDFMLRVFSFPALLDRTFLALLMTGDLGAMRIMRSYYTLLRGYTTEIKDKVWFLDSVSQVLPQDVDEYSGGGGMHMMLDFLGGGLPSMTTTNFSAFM
- TEST PROTOCOL: PBM E-score (8-mer binding enrichment) (E-score (-0.5 to 0.5)); higher = stronger / more preferred TF binding
- CONDITION CONTEXT: protein concentration: 200 nM; construct: GST-full length
In all, about 33,000 sequences were measured (“E-score (-0.5 to 0.5)”: median about -0.041, highest 2% from about 0.37 on). This excerpt belongs to a sample that is enriched for the highest values.
MEASURED QUANTITY: PBM E-score
Number only, please.

Would you please look over these solved cases?
{"ENTRY SEQUENCE": "AACGACGT", "MEASURED ON": "Ecm22 (UniProt Q05958)", "RESULT": 0.435}
{"ENTRY SEQUENCE": "GGTGCCAA", "MEASURED ON": "Ecm22 (UniProt Q05958)", "RESULT": -0.179}
{"ENTRY SEQUENCE": "AACGGCGA", "MEASURED ON": "Ecm22 (UniProt Q05958)", "RESULT": 0.381}
{"ENTRY SEQUENCE": "GTCGTAAC", "MEASURED ON": "Ecm22 (UniProt Q05958)", "RESULT": 0.397}
{"ENTRY SEQUENCE": "AAGGACGT", "MEASURED ON": "Ecm22 (UniProt Q05958)", "RESULT": 0.0897}
{"ENTRY SEQUENCE": "CCCGTAGA", "MEASURED ON": "Ecm22 (UniProt Q05958)", "RESULT": -0.00351}
{"ENTRY SEQUENCE": "CACGTAAC", "MEASURED ON": "Ecm22 (UniProt Q05958)", "RESULT": -0.149}
{"ENTRY SEQUENCE": "ACCGTATA", "MEASURED ON": "Ecm22 (UniProt Q05958)", "RESULT": 0.459}

Task item: Fill in reported PBM E-score for this entry: "CTCGTAAG"
Reply: 0.44

Task item: Fill in reported PBM E-score for this entry: "ACCGACGT"
Reply: 0.329

Task item: Fill in reported PBM E-score for this entry: "AAAGACGC"
Reply: -0.118

Task item: Fill in reported PBM E-score for this entry: "AACGACGG"
Reply: 0.444
